From: patent US6737383B1

# System: velvetleaf
# measurement_description: Test B pre/postemergence velvetleaf
# Format: in vivo, Abutilon theophrasti
# protocol_conditions: Rate 62 g/ha, Postemergence; scale 0 to 10, 0 no effect, 10 complete control
metric_name: Velvetleaf plant response rating
Give bare numbers.

{"compound": "CC(C)N(C(=O)n1oc(=O)n(CC[N+](=O)[O-])c1=O)c1ccc(Cl)cc1", "target_of_assay": "velvetleaf", "Velvetleaf plant response rating": 0}
{"compound": "Cc1nc(C)c(C(C)n2c(=O)on(C(=O)N(c3ccc(F)cc3F)C(C)C)c2=O)s1 (centres unmarked)", "target_of_assay": "velvetleaf", "Velvetleaf plant response rating": 0}

Batch lookup, Velvetleaf plant response rating per entry.
1. CC(C)N(C(=O)n1oc(=O)n(-c2ccc3ccccc3c2)c1=O)c1ccccc1
2. CC(C)N(C(=O)n1oc(=O)n(C(C)CCl)c1=O)c1ccc(Cl)cc1 (centres unmarked)
3. CC(C)N(C(=O)n1oc(=O)n(CCl)c1=O)c1ccc(F)cc1F

Marked response:
[0, 0, 0]
